Values from the kinase profiling compilation of Christmann-Franck et al. (2016)

measurementTarget: PHKG1 (human)
protocolNotes: radiometric filter-binding kinase assay, Kinase HotSpot
setupConditions: compound 0.5 µM; ATP 10 µM
Known residual activity of a selection of compounds
reportedProperty: residual activity (%)

> print(dat)
                                    compound  unitsymbol  measuredresult
 1  CCCC(=O)Oc1ccc2[nH]c(C(=O)c3cc4ccccc4[nH]3)cc2c1           %            93.7
 2                 CC(=O)c1ccc(N2CCOCC2)cc1O           %            96.5
 3  O=C1NC(=O)C(c2cn(CCCn3ccnc3)c3ccccc23)=C1Nc1ccccc1           %            64.6
 4          O=c1cc(N2CCOCC2)oc2c1ccc1ccccc12           %            98.2
 5  O=C(Nc1cccc(Nc2nccc(Nc3cccc(C(F)(F)F)c3)n2)c1)C1CC1           %            98.3
 6  CC[n+]1c(/C=C/N(C)c2ccccc2)n(-c2ccccc2)c2ccc(-c3nc4ccccc4s3)cc21           %            96.1
 7  CCN(CC)CCNC(=O)c1c(C)[nH]c(/C=C2\C(=O)Nc3ccc(Cl)cc32)c1C           %            3.19
 8  O=C1NC(=O)/C(=C/c2ccc3c(c2)OC(F)(F)O3)S1           %            94.2
 9  Cc1ccc(Nc2nccc(N(C)c3ccc4c(C)n(C)nc4c3)n2)cc1S(N)(=O)=O           %            92.5
10  Cc1[nH]c(/C=C2\C(=O)Nc3ccc(S(=O)(=O)N(C)c4cccc(Cl)c4)cc32)c(C)c1C(=O)N1CCN(C)CC1           %            45.2

###

Known residual activity of a selection of compounds
measurementTarget: TSSK1B (human) (UniProt Q9BXA7)
Sequence (Q9BXA7 whole entry, looked up): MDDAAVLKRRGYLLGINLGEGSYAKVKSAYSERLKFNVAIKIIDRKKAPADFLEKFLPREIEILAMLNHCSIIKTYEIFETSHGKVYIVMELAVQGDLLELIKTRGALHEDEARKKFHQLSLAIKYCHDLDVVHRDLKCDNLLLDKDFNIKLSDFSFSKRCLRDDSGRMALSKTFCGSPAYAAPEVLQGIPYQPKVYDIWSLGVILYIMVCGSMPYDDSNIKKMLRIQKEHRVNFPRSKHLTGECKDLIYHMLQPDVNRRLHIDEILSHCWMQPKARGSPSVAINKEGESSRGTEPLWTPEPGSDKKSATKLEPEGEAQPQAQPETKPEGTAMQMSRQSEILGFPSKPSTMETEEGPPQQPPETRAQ
protocolNotes: radiometric filter-binding kinase assay, Kinase HotSpot
setupConditions: compound 0.5 µM; ATP 10 µM
reportedProperty: residual activity

> print(dat)
                                    compound  measuredresult
 1     CCC(=O)Nc1ccc2ncnc(Nc3cccc(Br)c3)c2c1           73.2%
 2  Cc1[nH]c(/C=C2\C(=O)Nc3ccc(S(=O)(=O)N(C)c4cccc(Cl)c4)cc32)c(C)c1C(=O)N1CCN(C)CC1           21.7%
 3    CC(C)N(CCC(=O)c1ccc2ccccc2c1)Cc1ccccc1            100%
 4   COc1ccc(COc2ccc(Cc3cnc(N)nc3N)cc2OC)cc1           95.2%
 5  Cc1ccc(Nc2nccc(N(C)c3ccc4c(C)n(C)nc4c3)n2)cc1S(N)(=O)=O             99%
 6  N#C/C(=C(/N)Sc1ccc(N)cc1)c1ccccc1C(F)(F)F            103%
 7  CCCC(=O)Oc1ccc2[nH]c(C(=O)c3cc4ccccc4[nH]3)cc2c1           78.1%
 8           Nc1ncnc2[nH]nc(Nc3ccc(F)cc3)c12           96.4%
 9  O=C1NC(=O)/C(=C/c2ccc3c(c2)OC(F)(F)O3)S1           93.3%
10  O=C1NC(=O)c2c1c1c3ccccc3n3c1c1c2c2ccccc2n1C1CCC3O1           17.7%

###

measurementTarget: FGFR2 (human)
protocolNotes: radiometric filter-binding kinase assay, Kinase HotSpot
setupConditions: compound 0.5 µM; ATP 10 µM
Known residual activity of a selection of compounds

compound	residual activity / %
O=C(Nc1cccc(Nc2nccc(Nc3cccc(C(F)(F)F)c3)n2)c1)C1CC1	103
Nc1ncnc2[nH]nc(Nc3ccc(F)cc3)c12	97.2
CCOC(=O)c1c(C)[nH]c(/C=C2\C(=O)Nc3ccccc32)c1C	97.9
COc1cc2ncnc(Nc3cccc(Cl)c3)c2cc1OC	97.5
Cc1[nH]c(/C=C2\C(=O)Nc3ccc(S(=O)(=O)N(C)c4cccc(Cl)c4)cc32)c(C)c1C(=O)N1CCN(C)CC1	74.1
CCN(CC)CCNC(=O)c1c(C)[nH]c(/C=C2\C(=O)Nc3ccc(F)cc32)c1C	50.5
O=S(=O)(c1cccc2cnccc12)N1CCCNCC1	97.6
COc1ccc2c(c[n+](C)c3c4cc5c(cc4ccc23)OCO5)c1OC	101
CO[C@H]1CC2CC[C@@H](C)[C@@](O)(O2)C(=O)C(=O)N2CCCC[C@H]2C(=O)OC([C@H](C)C[C@@H]2CC[C@@H](O)[C@H](OC)C2)CC(=O)[C@H](C)/C=C(\C)[C@@H](O)[C@@H](OC)C(=O)[C@H](C)C[C@H](C)/C=C/C=C/C=C/1C (stereo not given in full)	110
Cc1ccc(NC2=CC(=O)c3sc(C)nc3C2=O)cc1	91
N#C/C(=C(/N)Sc1ccc(N)cc1)c1ccccc1C(F)(F)F	101
CCC(=O)Nc1ccc2ncnc(Nc3cccc(Br)c3)c2c1	99.8
N#CC(C#N)=C(N)/C(C#N)=C/c1ccc(O)cc1	102
Nc1ncnc2c1c(-c1ccc(Oc3ccccc3)cc1)cn2C1CCCC1	78
c1ccc(-c2n[nH]cc2-c2ccnc3ccccc23)nc1	110

###

measurementTarget: CDK5 CDK5R1 p25 (human) (UniProt Q00535+Q15078)
Sequence (Q00535 whole entry, looked up): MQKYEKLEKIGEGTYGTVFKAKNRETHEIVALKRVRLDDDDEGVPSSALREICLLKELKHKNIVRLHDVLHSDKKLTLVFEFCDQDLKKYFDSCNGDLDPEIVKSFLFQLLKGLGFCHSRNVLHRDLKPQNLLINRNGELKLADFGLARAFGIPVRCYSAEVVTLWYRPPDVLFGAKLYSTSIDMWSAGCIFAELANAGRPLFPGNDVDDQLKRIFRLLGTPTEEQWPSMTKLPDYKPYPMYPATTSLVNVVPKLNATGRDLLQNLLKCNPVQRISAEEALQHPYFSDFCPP
Sequence (Q15078 whole entry, looked up): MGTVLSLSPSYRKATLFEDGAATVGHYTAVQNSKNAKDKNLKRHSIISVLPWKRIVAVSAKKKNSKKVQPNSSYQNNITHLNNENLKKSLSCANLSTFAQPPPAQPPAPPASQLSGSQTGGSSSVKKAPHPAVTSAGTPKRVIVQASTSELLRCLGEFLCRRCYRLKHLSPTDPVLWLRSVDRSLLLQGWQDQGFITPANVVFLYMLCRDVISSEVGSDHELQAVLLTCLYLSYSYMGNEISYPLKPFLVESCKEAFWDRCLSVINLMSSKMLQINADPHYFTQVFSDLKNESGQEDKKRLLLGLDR
protocolNotes: radiometric filter-binding kinase assay, Kinase HotSpot
setupConditions: compound 0.5 µM; ATP 10 µM
Output Condition met for residual activity not less than 90%; output Condition not met otherwise.

compound	answerLabel
O=c1cc(N2CCOCC2)oc2c1ccc1ccccc12	Condition met
COc1ccc2c(c[n+](C)c3c4cc5c(cc4ccc23)OCO5)c1OC	Condition not met
CC(=O)c1ccc(N2CCOCC2)cc1O	Condition met
CO[C@H]1CC2CC[C@@H](C)[C@@](O)(O2)C(=O)C(=O)N2CCCC[C@H]2C(=O)OC([C@H](C)C[C@@H]2CC[C@@H](O)[C@H](OC)C2)CC(=O)[C@H](C)/C=C(\C)[C@@H](O)[C@@H](OC)C(=O)[C@H](C)C[C@H](C)/C=C/C=C/C=C/1C (stereo not given in full)	Condition met
CCC(=O)Nc1ccc2ncnc(Nc3cccc(Br)c3)c2c1	Condition not met
N#CC(C#N)=C(N)/C(C#N)=C/c1ccc(O)cc1	Condition met
Cc1ccc(NC2=CC(=O)c3sc(C)nc3C2=O)cc1	Condition not met
Oc1cccc(-c2nc(N3CCOCC3)c3oc4ncccc4c3n2)c1	Condition not met
N#C/C(=C(/N)Sc1ccc(N)cc1)c1ccccc1C(F)(F)F	Condition met
Nc1ncnc2[nH]nc(Nc3ccc(F)cc3)c12	Condition not met

###

measurementTarget: PKN2 (human) (UniProt Q16513)
Sequence (Q16513 whole entry, looked up): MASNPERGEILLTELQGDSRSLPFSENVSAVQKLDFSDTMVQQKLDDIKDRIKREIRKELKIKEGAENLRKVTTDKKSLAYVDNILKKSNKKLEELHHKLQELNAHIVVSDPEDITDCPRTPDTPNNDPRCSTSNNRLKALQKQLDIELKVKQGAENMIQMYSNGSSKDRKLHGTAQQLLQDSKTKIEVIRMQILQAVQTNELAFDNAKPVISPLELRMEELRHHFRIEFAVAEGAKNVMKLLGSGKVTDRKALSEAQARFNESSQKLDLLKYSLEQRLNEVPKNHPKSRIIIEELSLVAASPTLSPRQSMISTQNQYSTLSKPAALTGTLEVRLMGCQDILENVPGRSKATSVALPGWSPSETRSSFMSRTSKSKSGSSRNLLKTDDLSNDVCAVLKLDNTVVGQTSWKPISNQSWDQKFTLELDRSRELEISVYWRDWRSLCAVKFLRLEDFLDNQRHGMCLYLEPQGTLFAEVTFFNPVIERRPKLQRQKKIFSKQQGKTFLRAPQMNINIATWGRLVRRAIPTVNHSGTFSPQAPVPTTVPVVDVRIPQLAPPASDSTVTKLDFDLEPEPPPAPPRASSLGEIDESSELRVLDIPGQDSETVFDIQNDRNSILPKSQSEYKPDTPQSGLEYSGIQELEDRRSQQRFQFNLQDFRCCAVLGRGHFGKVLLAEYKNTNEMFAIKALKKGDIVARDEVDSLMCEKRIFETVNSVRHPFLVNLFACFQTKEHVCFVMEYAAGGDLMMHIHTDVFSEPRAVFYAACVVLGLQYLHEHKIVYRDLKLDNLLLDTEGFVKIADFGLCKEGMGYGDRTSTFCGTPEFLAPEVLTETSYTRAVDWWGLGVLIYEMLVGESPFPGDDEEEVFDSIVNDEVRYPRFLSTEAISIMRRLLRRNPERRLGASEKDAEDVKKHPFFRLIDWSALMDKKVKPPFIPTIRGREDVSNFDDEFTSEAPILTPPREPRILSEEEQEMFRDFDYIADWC
protocolNotes: radiometric filter-binding kinase assay, Kinase HotSpot
setupConditions: compound 0.5 µM; ATP 10 µM
reportedProperty: residual activity

compound	reportedProperty	measuredResult
COc1ccc2c(c[n+](C)c3c4cc5c(cc4ccc23)OCO5)c1OC	residual activity	93.3%
CO[C@H]1CC2CC[C@@H](C)[C@@](O)(O2)C(=O)C(=O)N2CCCC[C@H]2C(=O)OC([C@H](C)C[C@@H]2CC[C@@H](O)[C@H](OC)C2)CC(=O)[C@H](C)/C=C(\C)[C@@H](O)[C@@H](OC)C(=O)[C@H](C)C[C@H](C)/C=C/C=C/C=C/1C (stereo not given in full)	residual activity	89.8%
CC#CC(=O)Nc1cc2c(Nc3ccc(F)c(Cl)c3)ncnc2cn1	residual activity	95%
CCOC(=O)c1c(C)[nH]c(/C=C2\C(=O)Nc3ccccc32)c1C	residual activity	92%
Nc1ncnc2c1c(-c1ccc(Oc3ccccc3)cc1)cn2C1CCCC1	residual activity	104%
CCC(=O)Nc1ccc2ncnc(Nc3cccc(Br)c3)c2c1	residual activity	106%
CCN(CC)CCNC(=O)c1c(C)[nH]c(/C=C2\C(=O)Nc3ccc(F)cc32)c1C	residual activity	89.1%
CCN(CC)CCNC(=O)c1c(C)[nH]c(/C=C2\C(=O)Nc3ccc(Cl)cc32)c1C	residual activity	84.4%
c1ccc(-c2n[nH]c3c2oc2ccccc23)cc1	residual activity	97.5%
CNC(=O)c1cc(Oc2ccc(NC(=O)Nc3ccc(Cl)c(C(F)(F)F)c3)cc2)ccn1	residual activity	94.2%
CC(=O)c1ccc(N2CCOCC2)cc1O	residual activity	94.8%
COc1ccc(COc2ccc(Cc3cnc(N)nc3N)cc2OC)cc1	residual activity	90.9%
O=S(=O)(c1cccc2cnccc12)N1CCCNCC1	residual activity	103%
c1ccc(-c2n[nH]cc2-c2ccnc3ccccc23)nc1	residual activity	91.4%
Nc1ccc2ncnc(NCCc3ccc(Oc4ccccc4)cc3)c2c1	residual activity	89.7%
O=C1NC(=O)c2c1c1c3ccccc3n3c1c1c2c2ccccc2n1C1CCC3O1	residual activity	15.9%
CC[n+]1c(/C=C/N(C)c2ccccc2)n(-c2ccccc2)c2ccc(-c3nc4ccccc4s3)cc21	residual activity	79.2%
Cc1ccc(Nc2nccc(N(C)c3ccc4c(C)n(C)nc4c3)n2)cc1S(N)(=O)=O	residual activity	106%
COc1cc2ncnc(Nc3cccc(Cl)c3)c2cc1OC	residual activity	89.8%
N#CC(C#N)=C(N)/C(C#N)=C/c1ccc(O)cc1	residual activity	96.9%
